ASSAYED TARGET: FGFR2 (Homo sapiens, UniProt P21802)
Construct: purchased DiscoveRx Corporation
Sequence (P21802 22-821): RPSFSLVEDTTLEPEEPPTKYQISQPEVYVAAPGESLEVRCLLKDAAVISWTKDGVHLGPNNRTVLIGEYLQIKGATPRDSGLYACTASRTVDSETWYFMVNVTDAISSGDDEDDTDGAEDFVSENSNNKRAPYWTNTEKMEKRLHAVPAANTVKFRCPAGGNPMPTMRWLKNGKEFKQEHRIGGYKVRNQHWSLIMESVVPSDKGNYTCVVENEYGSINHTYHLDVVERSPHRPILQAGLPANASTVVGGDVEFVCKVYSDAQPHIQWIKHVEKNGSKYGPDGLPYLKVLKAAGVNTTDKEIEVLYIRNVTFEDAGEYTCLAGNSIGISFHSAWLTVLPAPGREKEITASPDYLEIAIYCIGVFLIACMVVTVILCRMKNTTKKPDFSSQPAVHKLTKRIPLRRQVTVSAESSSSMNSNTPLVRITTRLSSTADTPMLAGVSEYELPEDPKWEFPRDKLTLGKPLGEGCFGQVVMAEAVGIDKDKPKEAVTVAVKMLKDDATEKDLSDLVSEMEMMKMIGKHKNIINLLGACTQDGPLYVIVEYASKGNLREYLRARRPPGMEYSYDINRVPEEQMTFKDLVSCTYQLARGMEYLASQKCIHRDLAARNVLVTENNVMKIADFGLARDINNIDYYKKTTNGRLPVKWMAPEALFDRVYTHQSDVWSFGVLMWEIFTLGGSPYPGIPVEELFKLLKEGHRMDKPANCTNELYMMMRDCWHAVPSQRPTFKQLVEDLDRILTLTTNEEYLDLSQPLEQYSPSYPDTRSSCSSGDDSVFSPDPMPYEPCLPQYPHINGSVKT
ASSAY DETAILS: Enzyme binding assay (KINOMEscan) FGFR2
CONDITIONS: pKd = -log Kd (M), read-out: FGFR2_pKd (converted)
RECORDED ENDPOINT: Kd (M)
Just the number please, in M, no unit attached.

Reference set (2 entries):
COc1cc(OC)c(F)c(N(CCO)c2ccc3ncn(-c4ccncc4)c(=O)c3c2)c1 ... 2e-08
CNCCN(c1ccc2ncn(C3CCNCC3)c(=O)c2c1)c1cc(OC)cc(OC)c1F ... 3.98e-07

Now for the molecule whose Kd we want.
INPUT: Missing value: Kd, FGFR2 (Homo sapiens, UniProt P21802), entry COc1cc(OC)cc(N(CCCO)c2ccc3ncn(C4CCNCC4)c(=O)c3c2)c1 . Fill in?
OUTPUT: 2.51e-06

###

ASSAYED TARGET: Ba/F3-FGFR4-transfected cells (Homo sapiens, UniProt P22455, cells depend on it, form not given)
Sequence (P22455 whole entry, looked up, change not shown): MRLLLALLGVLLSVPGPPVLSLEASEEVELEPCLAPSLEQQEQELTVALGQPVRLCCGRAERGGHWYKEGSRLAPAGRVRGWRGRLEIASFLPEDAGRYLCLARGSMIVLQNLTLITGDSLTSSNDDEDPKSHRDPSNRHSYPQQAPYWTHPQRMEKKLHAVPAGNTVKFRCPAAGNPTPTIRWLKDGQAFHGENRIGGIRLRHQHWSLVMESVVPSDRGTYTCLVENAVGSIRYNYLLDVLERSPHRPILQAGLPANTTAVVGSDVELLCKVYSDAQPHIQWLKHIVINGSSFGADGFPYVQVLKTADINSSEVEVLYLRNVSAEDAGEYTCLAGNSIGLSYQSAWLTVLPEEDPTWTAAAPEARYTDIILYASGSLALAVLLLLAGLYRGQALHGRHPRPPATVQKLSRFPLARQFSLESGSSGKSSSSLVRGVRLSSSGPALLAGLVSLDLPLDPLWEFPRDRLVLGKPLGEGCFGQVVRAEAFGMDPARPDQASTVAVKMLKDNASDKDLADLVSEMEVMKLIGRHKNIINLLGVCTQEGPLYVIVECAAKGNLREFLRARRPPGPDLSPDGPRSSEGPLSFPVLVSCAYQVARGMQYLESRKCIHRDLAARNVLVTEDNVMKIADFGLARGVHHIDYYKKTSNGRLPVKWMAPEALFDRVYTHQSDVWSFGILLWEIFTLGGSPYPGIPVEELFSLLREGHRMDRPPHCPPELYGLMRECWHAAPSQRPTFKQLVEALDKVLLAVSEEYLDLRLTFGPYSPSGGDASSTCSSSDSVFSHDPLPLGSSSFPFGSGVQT
ASSAY DETAILS: Ba/F3-FGFR4 cellular proliferation assay
Format: cell-based
CONDITIONS: 24 hours, Alamar Blue
In this section, each of the compounds is paired with its reported BAF3-FGFR4 (pIC50).
Give the value as a plain number.

Reference set (3 entries):
COc1cc(OC)c(F)c(N(CCNC(C)C)c2ccc3ncn(-c4cnn(C)c4)c(=O)c3c2)c1 ... 6.8
COc1cc(OC)c(F)c(N(Cc2ncc[nH]2)c2ccc3ncn(-c4ccccc4)c(=O)c3c2)c1F ... 5.4
COc1cc(OC)c(F)c(N(CCO)c2ccc3ncn(-c4ccccc4)c(=O)c3c2)c1F ... 5.6

INPUT: Query (compound): COc1cc(OC)c(F)c(N(CCO)c2ccc3ncn(-c4cnn(C)c4)c(=O)c3c2)c1F ; field requested: BAF3-FGFR4 (pIC50)
OUTPUT: 6.6

INPUT: Query (compound): COc1cc(OC)c(F)c(N(Cc2ncc[nH]2)c2ccc3ncn(-c4cnn(C)c4)c(=O)c3c2)c1 ; field requested: BAF3-FGFR4 (pIC50)
OUTPUT: 5.8

INPUT: Query (compound): COc1cc(OC)c(F)c(N(CCO)c2ccc3ncn(-c4ccccc4)c(=O)c3c2)c1 ; field requested: BAF3-FGFR4 (pIC50)
OUTPUT: 5.0

INPUT: Query (compound): COc1cc(OC)cc(N(CCNC(C)C)c2ccc3ncn(-c4cnn(C)c4)c(=O)c3c2)c1 ; field requested: BAF3-FGFR4 (pIC50)
OUTPUT: 6.2

INPUT: Query (compound): COc1cc(OC)c(F)c(N(Cc2ncc[nH]2)c2ccc3ncn(-c4cnn(C)c4)c(=O)c3c2)c1F ; field requested: BAF3-FGFR4 (pIC50)
OUTPUT: 6.7

INPUT: Query (compound): COc1cc(OC)c(F)c(N(CCNC(C)C)c2ccc3ncn(-c4ccccc4)c(=O)c3c2)c1F ; field requested: BAF3-FGFR4 (pIC50)
OUTPUT: 6.3

INPUT: Query (compound): COc1cc(OC)c(Cl)c(N(Cc2ncc[nH]2)c2ccc3ncn(-c4cnn(C)c4)c(=O)c3c2)c1Cl ; field requested: BAF3-FGFR4 (pIC50)
OUTPUT: 5.2

###

In this section, each of the molecules is paired with its reported melting point.
Just the number please, in °C, no unit attached.

INPUT: Query (molecule): COc1cc(OC)c(F)c(N(CCO)c2ccc3ncn(-c4ccccc4)c(=O)c3c2)c1F ; field requested: melting point
OUTPUT: 169

INPUT: Query (molecule): CNCCN(c1ccc2ncn(C3CCOCC3)c(=O)c2c1)c1cc(OC)cc(OC)c1F ; field requested: melting point
OUTPUT: 178

INPUT: Query (molecule): COc1cc(OC)c(F)c(N(CCO)c2ccc3ncn(-c4cnn(C)c4)c(=O)c3c2)c1 ; field requested: melting point
OUTPUT: 164

INPUT: Query (molecule): COc1cc(OC)c(F)c(N(Cc2nccn2S(=O)(=O)N(C)C)c2ccc3ncn(-c4ccncc4)c(=O)c3c2)c1F ; field requested: melting point
OUTPUT: 139

INPUT: Query (molecule): COc1cc(OC)cc(N(CCNC(C)C)c2ccc3ncn(-c4cnn(C)c4)c(=O)c3c2)c1 ; field requested: melting point
OUTPUT: 142

INPUT: Query (molecule): COc1cc(OC)c(F)c(N(Cc2nccn2S(=O)(=O)N(C)C)c2ccc3ncn(-c4cccnc4)c(=O)c3c2)c1 ; field requested: melting point
OUTPUT: 108

INPUT: Query (molecule): COc1cc(OC)cc(N(CCO)c2ccc3ncn(C4CCNCC4)c(=O)c3c2)c1 ; field requested: melting point
OUTPUT: 165

INPUT: Query (molecule): COc1cc(OC)cc(N(CCNC(C)C)c2ccc3ncn(-c4cccnc4)c(=O)c3c2)c1 ; field requested: melting point
OUTPUT: 136

INPUT: Query (molecule): COc1cc(OC)c(F)c(N(CCO)c2ccc3ncn(-c4cncnc4)c(=O)c3c2)c1F ; field requested: melting point
OUTPUT: 178

INPUT: Query (molecule): COc1cc(OC)c(F)c(N(CCCO)c2ccc3ncn(C4CCNCC4)c(=O)c3c2)c1F ; field requested: melting point
OUTPUT: 184

INPUT: Query (molecule): COc1cc(OC)cc(N(CCCNC(C)C)c2ccc3ncn(C4CCNCC4)c(=O)c3c2)c1 ; field requested: melting point
OUTPUT: 255

INPUT: Query (molecule): COc1cc(OC)c(F)c(N(CCCNC(C)C)c2ccc3ncn(C4CCNCC4)c(=O)c3c2)c1 ; field requested: melting point
OUTPUT: 140

INPUT: Query (molecule): COc1cc(OC)c(F)c(N(CCCNC(C)C)c2ccc3ncn(C4CCNCC4)c(=O)c3c2)c1F ; field requested: melting point
OUTPUT: 126

INPUT: Query (molecule): COc1cc(OC)cc(N(CCCO)c2ccc3ncn(C4CCNCC4)c(=O)c3c2)c1 ; field requested: melting point
OUTPUT: 167

INPUT: Query (molecule): COc1cc(OC)c(F)c(N(CCO)c2ccc3ncn(-c4cccnc4)c(=O)c3c2)c1 ; field requested: melting point
OUTPUT: 186
